B1: CLCN6 (parent)
chain: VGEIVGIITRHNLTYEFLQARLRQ

# Variants of: B1
# ASSAY SUMMARY: protein stability index of a GFP-peptide fusion (GPS, HEK-293T) (PSI 1-6); higher = more stable;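 further: lentivirally expressed fusions sorted by FACS into six bins by GFP to DsRed ratio, PSI derived from sequencing read proportions per bin multiplied by bin number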
# CONDITION DESCRIPTION: c terminus: a fixed tail appended
Would you please tag the item criterion met when its protein stability index is 2 or above, and criterion not met when it is below?

See these solved cases before continuing.
L18I ... criterion met
F17H ... criterion not met
V5Q ... criterion not met
Q24N ... criterion met

[ask] Reported protein stability index at or above 2? R10E
[reply] criterion met

[ask] Reported protein stability index at or above 2? T14V
[reply] criterion met

[ask] Reported protein stability index at or above 2? Q19Y
[reply] criterion not met

[ask] Reported protein stability index at or above 2? V5A
[reply] criterion not met

[ask] Reported protein stability index at or above 2? R10D
[reply] criterion met
